Each recorded value in this set is attributed to patent US9988381B2.

# ASSAY SYSTEM: c-Met kinase domain recombinant protein (Homo sapiens, UniProt P08581)
# Construct: 50 μL diluted solution of c-Met kinase domain recombinant protein in reaction buffer was added to initiate the reaction
# Sequence (P08581 1078-1345 limits assumed): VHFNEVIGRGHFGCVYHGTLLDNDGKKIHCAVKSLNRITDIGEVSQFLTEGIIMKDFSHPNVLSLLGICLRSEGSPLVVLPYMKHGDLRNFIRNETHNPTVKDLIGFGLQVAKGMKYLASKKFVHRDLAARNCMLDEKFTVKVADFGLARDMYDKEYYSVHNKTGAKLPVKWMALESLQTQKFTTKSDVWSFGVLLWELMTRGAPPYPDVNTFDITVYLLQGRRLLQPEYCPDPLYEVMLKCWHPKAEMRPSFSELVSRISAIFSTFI
# MEASUREMENT PROTOCOL: biochemical
# CONDITIONS: read-out: Inhibition rate at 10 μM (%)
OBSERVED PROPERTY: inhibition at 10 µM (%)
Use % as the unit, but write only the number.

Ask | What does the data say about its inhibition at 10 µM? Entry: COc1ccc(OC)c(-c2cnc3cnn(S(=O)(=O)c4cnc5ccccn45)c3c2)c1 [Example 43]
Reply | 58.4

Ask | Please answer likewise for CS(=O)(=O)Nc1ccc(-c2cnc3cnn(S(=O)(=O)c4cnc5ccccn45)c3c2)cc1 [Example 34]
Reply | 61.3

Ask | Please answer likewise for O=C(C1CCCC1)N1CCC(n2cc(-c3cnc4cnn(S(=O)(=O)c5cnc6ccccn56)c4c3)cn2)CC1 [Example 56]
Reply | 62.1

Ask | Please answer likewise for Cn1cc(-c2cnc3cnn(S(=O)(=O)c4cnc5ccc(Cl)nn45)c3c2)cn1 [Example 25]
Reply | 86.2

Ask | Please answer likewise for O=S(=O)(c1cnc2cccnn12)n1ncc2ncc(-c3cnn(C4CCNCC4)c3)cc21 [Example 51]
Reply | 72.3

Ask | Please answer likewise for COc1ccc(S(=O)(=O)n2ncc3ncc(-c4cnn(C)c4)cc32)cc1OC [Compound 10]
Reply | 37.9

Ask | Please answer likewise for CC(C)(C)OC(=O)N1CCC(n2cc(-c3cnc4cnn(S(=O)(=O)c5cnc6ccc(-c7cnn(C8CCN(C(=O)OC(C)(C)C)CC8)c7)nn56)c4c3)cn2)CC1 [Example 62]
Reply | 62.6

Ask | Please answer likewise for CC(C)N1CCC(n2cc(-c3cnc4cnn(S(=O)(=O)c5cnc6ccccn56)c4c3)cn2)CC1 [Example 59]
Reply | 60.3

Ask | Please answer likewise for O=C(C1CCCCC1)N1CCC(n2cc(-c3cnc4cnn(S(=O)(=O)c5cnc6ccccn56)c4c3)cn2)CC1 [Example 57]
Reply | 60.8
